Parameter 'readout' = CC50; parameter 'system' = Calu-3 cells.
One number for each entry, in nM.

Go through the items and report each one's CC50.
1. Cn1cnc([N+](=O)[O-])c1Sc1ncnc2[nH]cnc12 [Azathioprin]
2. Nc1nc2[nH]cnc2c(=S)[nH]1 [Tioguanine]

Ans.
3550
822

----------
# assay.info: in vitro
# test.context: human, uninfected HeLa-ACE2 CC50
Provide the recorded CC50 for the entries that follow.

- molecule: "Cc1cccc(/C=N/Nc2cc(N3CCOCC3)nc(OCCc3ccccn3)n2)c1 [Apilimod]"
  measured.quantity: "CC50"
  result: "> 40 µM"

Continue with the next molecule.
Qu. Dear colleague, please send me the reported CC50 for CCC(CC)COC(=O)[C@H](C)N[P@](=O)(OC[C@H]1O[C@@](C#N)(c2ccc3c(N)ncnn23)[C@H](O)[C@@H]1O)Oc1ccccc1 [Remdesivir] when you can.
Ans. > 40 µM
